Attribution: paper PMC8703390

Biological target: T1, prostate-specific antigen (PSA), uncomplexed free PSA (Homo sapiens, UniProt P07288)
T1 construct: prostate-specific antigen (PSA), human kallikrein; uncomplexed (free) form; also called fPSA; source: bought: Merck (ELISA)
T1 sequence (P07288 25-261, one chain of several): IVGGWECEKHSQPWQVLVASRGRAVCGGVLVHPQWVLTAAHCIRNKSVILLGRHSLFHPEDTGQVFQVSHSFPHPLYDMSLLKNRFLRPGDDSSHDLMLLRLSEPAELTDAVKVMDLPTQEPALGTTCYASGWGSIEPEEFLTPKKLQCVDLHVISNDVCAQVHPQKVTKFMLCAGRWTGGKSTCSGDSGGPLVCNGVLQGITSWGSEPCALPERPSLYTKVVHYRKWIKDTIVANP
Test: SPR; Biacore 2000; PSA immobilised on a CM4 chip by amine coupling (900-1000 RU); antibodies at 100, 50, 25, 12.5 and 10 nM in HSP-buffer flown at 30 uL/min; association 4-5 min, dissociation up to 480 min; bi-exponential fits to binding and dissociation curves; KD = Koff/Kon
Details: both partners purified
Measured Endpoint: kon

INSERT INTO assay_data (binder, measured_endpoint, value) VALUES
  ('murine 5A10 monoclonal IgG1 (antibody, V domains shown, heavy chain variable domain of m5A10; murine IgG1 heavy chain constant region; light chain variable domain of m5A10; light chain constant region; Murine IgG1; also called m5A10; parental murine antibody m5A10; source: provided by the University of Turku (Finland), prepared as previously described [8]) VH: EVQLVESGPGILQPSQTLSLTCSFSGFSLSTTGMGVSWIRQPSGKGLEWLAHLYWDEDKRYNPSLKSRLTISEDSSRNQVFLKITSVGPADSATYYCARKGYYGYFDYWGQGTALTVSS VL: DIVMTQSQKFMSTSVGDRVSVTCKASQNVNTDVAWYQQKPGQSPKALIFSTSYRSSGVPDRFTGSGSGTDFTLTITNVQSEDLAEYFCQQYSNYPLTFGAGTKVDLN', 'kon', '250000 M⁻¹ s⁻¹'),
  ('humanized 5A10 IgG1 (antibody, V domains shown, heavy chain variable domain of h5A10; IgG1 heavy chain constant region; light chain variable domain of h5A10; light chain constant region; not described, only the plasmid name p5A10VlhDhK hints at human kappa; IgG1; Light chain constant region probably human kappa (surmised from the plasmid name and the Vk1 template); also called h5A10; humanized antibody h5A10; source: HEK293 cells, transfected; …) VH: QVTLKESGPALVKPTQTLTLTCTFSGFSLSTTGMGVSWIRQPPGKALEWLAHIYWDDDKRYSTSLKTRLTISEDSSKNQVVLTMTNMDPVDTATYYCARKGYYGYFDYWGQGTLVTVSS VL: DIQMTQSPSSLSASVGDRVTVTCRASQNVNTDVAWYQQKPGKAPKALIFSTSYLQSGVPSRFSGSGSGTDFTLTISSLQPEDFATYYCQQYSNYPLTFGQGTKVEIK', 'kon', '620000 M⁻¹ s⁻¹'),
  ('humanized 5A10 conjugated with p-SCN-Bn-CHX-A''''-DTPA (antibody, V domains shown, as the heavy chain variable domain of m1; IgG1 heavy chain constant region, as in m1; as the light chain variable domain of m1; as the light chain constant region of m1; not described; IgG1; 111In labelling used the 3:1 conjugate, 177Lu labelling the 12:1 conjugate; also called h5A10-DTPA; DTPA-h5A10; source: HEK293 cells, transfected; purified by Protein G chromatography; conjugated with …) VH: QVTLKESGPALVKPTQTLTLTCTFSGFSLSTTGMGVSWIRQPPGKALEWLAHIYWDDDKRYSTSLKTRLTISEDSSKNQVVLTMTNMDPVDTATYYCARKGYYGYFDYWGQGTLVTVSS VL: DIQMTQSPSSLSASVGDRVTVTCRASQNVNTDVAWYQQKPGKAPKALIFSTSYLQSGVPSRFSGSGSGTDFTLTISSLQPEDFATYYCQQYSNYPLTFGQGTKVEIK', 'kon', '390000 M⁻¹ s⁻¹'),
  ('murine 5A10 conjugated with p-SCN-Bn-CHX-A''''-DTPA (antibody, V domains shown, as the heavy chain variable domain of m2; murine IgG1 heavy chain constant region, as in m2; as the light chain variable domain of m2; as the light chain constant region of m2; Murine IgG1; also called m5A10-DTPA; DTPA-m5A10; source: provided by the University of Turku (Finland); conjugated with p-SCN-Bn-CHX-A''''-DTPA and separated from free chelate on a NAP-5 column) VH: EVQLVESGPGILQPSQTLSLTCSFSGFSLSTTGMGVSWIRQPSGKGLEWLAHLYWDEDKRYNPSLKSRLTISEDSSRNQVFLKITSVGPADSATYYCARKGYYGYFDYWGQGTALTVSS VL: DIVMTQSQKFMSTSVGDRVSVTCKASQNVNTDVAWYQQKPGQSPKALIFSTSYRSSGVPDRFTGSGSGTDFTLTITNVQSEDLAEYFCQQYSNYPLTFGAGTKVDLN', 'kon', '270000 M⁻¹ s⁻¹');
